# protocol.details: Parallel artificial membrane permeability assay (PAMPA)
# measurement.parameters: pH 7.4
endpoint.label: Papp at 7 h, 100 µM (×10⁻⁶ cm/s)
Answers are plain numbers, in ×10⁻⁶ cm/s.

// known answers, use as guide
[[record]]
compound = "CC(C)NCC(O)COc1cccc2ccccc12 (stereo not shown) [Propranolol, reference compound]"
assay_result = 9.9

[[record]]
compound = "CC(C)C[C@H](NC(=O)[C@H](Cc1ccccc1)Nc1cc(F)c([N+](=O)[O-])cc1[N+](=O)[O-])C(=O)OC(C)(C)C"
assay_result = 3.4

[[record]]
compound = "CCOc1nc2cccc(C(=O)OC(C)OC(=O)OC3CCCCC3)c2n1Cc1ccc(-c2ccccc2-c2nnn[nH]2)cc1 (stereo not shown) [Candesartan cilexetil, reference compound]"
assay_result = 1.3


Moving on to another compound below.
Memo: CC(C)C[C@H](NC(=O)[C@H](Cc1ccccc1)Nc1ccc([N+](=O)[O-])c([N+](=O)[O-])c1)C(=O)OC(C)(C)C , reported Papp at 7 h, 100 µM: 9.3
